Biological target: MAP kinase-activated protein kinase 2 (Homo sapiens) (UniProt P49137)
Sequence (P49137 whole entry, looked up): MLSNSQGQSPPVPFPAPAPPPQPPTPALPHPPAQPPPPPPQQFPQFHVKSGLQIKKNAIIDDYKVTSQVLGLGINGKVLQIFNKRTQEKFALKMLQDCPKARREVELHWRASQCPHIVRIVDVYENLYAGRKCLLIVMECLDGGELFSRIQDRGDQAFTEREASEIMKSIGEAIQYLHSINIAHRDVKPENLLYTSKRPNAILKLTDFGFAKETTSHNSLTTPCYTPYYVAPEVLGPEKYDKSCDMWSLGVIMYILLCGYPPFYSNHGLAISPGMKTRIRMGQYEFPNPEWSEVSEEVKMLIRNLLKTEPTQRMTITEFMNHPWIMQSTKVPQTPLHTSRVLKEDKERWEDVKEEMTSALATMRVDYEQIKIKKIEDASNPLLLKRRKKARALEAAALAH
Assay: Inhibition of MK2
Measured Endpoint: Activity (µM)

CCOc1ccc(Nc2c(C)c(NCC3CCCN3)c(C#N)c3ccnn23)cc1 (stereo not drawn) = 1
CCOc1ccc(Nc2c(C)c(OCCN)nc3ccnn23)cc1 = 10

I: CCOc1ccc(Nc2c(C)c(N[C@H]3CC[C@H](NCC4CCCCC4)CC3)c(C#N)c3ccnn23)cc1
II: CCOc1ccc(Nc2c(C)c(NCC3CCNC3)c(C#N)c3ccnn23)cc1 (stereo not drawn)
Between I and II , which one shows the smaller Activity number? Respond with the label that goes with your answer. I

---

Molecular target: MAP kinase-activated protein kinase 2 (Homo sapiens)
Experiment: Inhibition of MK2
Measured Endpoint: Activity (µM)

CCOc1ccc(Nc2c(C)c(NCCCNC3CCCCC3)c(C#N)c3ccnn23)cc1 = 1

I: CCOc1ccc(Nc2c(C)c(NCCC3CCCCN3)c(C#N)c3ccnn23)cc1 (stereo not given)
II: N#Cc1c(N[C@H]2CC[C@H](N)CC2)cc(Nc2nc3ccccc3s2)n2nccc12
III: CCOc1ccc(Nc2c(C)c(NCC3CCCNC3)c(C#N)c3ccnn23)cc1 (stereo not given)
hey, can you rank those compounds up there by Activity? biggest number first please Put the labels in the requested order and write them down. I, III, II
(I: 10 µM, III: 1 µM, II: 0.2 µM)

---

Biological target: MAP kinase-activated protein kinase 2 (Homo sapiens) (UniProt P49137)
Test: Inhibition of MK2
Measured Endpoint: Activity (µM)

N#Cc1c(N[C@H]2CC[C@H](N)CC2)cc(Nc2ccccc2Cl)n2nccc12 = 0.2

I: CCOc1ccc(Nc2c(C)c(N[C@H]3CC[C@H](NCCCc4ccccc4)CC3)c(C#N)c3ccnn23)cc1
II: CCOc1ccc(Nc2c(C)c(NC3CCCC(N)C3)c(C#N)c3ccnn23)cc1 (stereo not given)
III: CCOc1ccc(Nc2c(C)c(N[C@@H]3CCCC[C@H]3N)c(C#N)c3ccnn23)cc1
hey, can you rank those compounds up there by Activity? biggest number first please Put the labels in the requested order and write them down. III, II, I
(III: 10 µM, II: 1 µM, I: 0.2 µM)

1: CCOc1ccc(Nc2c(C)c(NC3CCNCC3)c(C#N)c3ccnn23)cc1
2: CCOc1ccc(Nc2c(C)c(OC3CCCNC3)nc3ccnn23)cc1 (stereo not given)
Between 1 and 2 , which one shows the smaller Activity number? Respond with the label that goes with your answer. 1

a: CCOc1ccc(Nc2cc(N[C@@H]3CCCNC3)c(C#N)c3ccnn23)cc1
b: CCOc1ccc(Nc2c(C)c(NC3CNCc4ccccc43)c(C#N)c3ccnn23)cc1 (stereo not given)
Between a and b , whose recorded Activity is greater? Respond with the label that goes with your answer. b
(b: 1 µM, a: 0.2 µM)

---

Target: MAP kinase-activated protein kinase 2 (Homo sapiens)
Assay: Inhibition of MK2
Measured Endpoint: Activity (µM)

Example compounds with recorded Activity:
CCOc1ccc(Nc2c(C)c(NC3CCCCC3N)c(C#N)c3ccnn23)cc1 (stereo unspecified) = 10
CCOc1ccc(Nc2c(C)c(NCCCCCN)c(C#N)c3ccnn23)cc1 = 0.2
CCOc1ccc(Nc2c(C)c(N[C@H]3CC[C@H](NCc4ccccc4)CC3)c(C#N)c3ccnn23)cc1 = 0.2
CCOc1ccc(Nc2c(C)c(NCCC3CCCN3)c(C#N)c3ccnn23)cc1 (stereo unspecified) = 1

1: CCOc1ccc(Nc2c(C)c(NCCCCCCN)c(C#N)c3ccnn23)cc1
2: COCCOc1ccc(Nc2c(C)c(N[C@H]3CCNC3)c(C#N)c3ccnn23)cc1
3: CCOc1ccc(Nc2c(C)c(NCC3CCCCN3)c(C#N)c3ccnn23)cc1 (stereo unspecified)
hey, can you rank those compounds up there by Activity? biggest number first please Put the labels in the requested order and write them down. 1, 3, 2

a: N#Cc1c(N[C@@H]2CCCNC2)cc(Nc2ccc(-c3ccccc3)cc2)n2nccc12
b: CCOc1ccc(Nc2c(C)c(NCCC3CCCN3C)c(C#N)c3ccnn23)cc1 (stereo unspecified)
Between a and b , which one shows the smaller Activity number? Respond with the label that goes with your answer. a
